Target: Caspase-1 (Homo sapiens) (UniProt P29466)
Experiment: qHTS Assay for Allosteric/Competitive Inhibitors of Caspase-1;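 also: plate controls were vehicle for no effect and no substrate for full effect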
Settings: Caspase-1 enzyme, Ac-WEHD-AFC fluorogenic rate; series mostly up to 57.5 µM
Description: NIH Molecular Libraries Screening Centers Network [MLSCN] NIH Chemical Genomics Center [NCGC] PI Name: Dr. James Wells, Dr. Enrique Perez-Paya, Dr.Janice Williams, Dr. Dennis Wolan, a person […] Concentration-response curves were fitted to the data calculated from slope of the linear regression of fluorescent intensity versus time (the rate). The concentration-effect curves were then classified based on curve quality (r2), response magnitude and degree of measured activity. […]
The campaign covered roughly 75,000 compounds. About 20 (0.03%) were called active. About 1% were inconclusive and are not listed. The list is a sample of the results.
Recorded endpoint: activity change, negative = inhibition

molecule="CC1(C)OC(C(O)(c2ccccc2)c2ccccc2)C(C(O)(c2ccccc2)c2ccccc2)O1 (stereo not given)" result_value="-8.99% [at 11.5 µM] (inactive)"
molecule=Oc1ccc2ccccc2c1C=NCc1c(O)ccc2ccccc12 result_value="-2.14% [at 11.5 µM] (inactive)"
molecule=CO[C@H]1COC(=O)[C@H](Cc2ccccc2)NC(=O)C/C=C\[C@@H](C)[C@H](OC)COC(=O)C/C=C\[C@@H]1C result_value="-1.56% [at 11.5 µM] (inactive)"
molecule=Cc1cc(C(=O)COC(=O)c2cccs2)c(C)n1-c1c(C)n(C)n(-c2ccccc2)c1=O result_value=inactive
molecule="COc1ccc2c3c1OC1CC(O)C=C[C@@]31CCN(C)C2 (stereo not given in full)" result_value=inactive
